Normalized average relative binding affinity(ARB) by entry:
Experimental system: HLA B*5801 (Homo sapiens, UniProt P01889, A329T/C349S/D201E/D98Y/E176V/E187L/E204Q/E69T/G107R/I218V/I90N/K202T/L105A/L119I/N104I/N87E/Q89R/Q94S/R106L/R155S/R180L/R86G/S101N/S121R/S35A/S48A/T118I/V127L/V306I/V36M/Y140S/Y91M)
Assay type: binding

Some solved cases for reference:
XXXXXXSXX [3064.0136]: 0.14
XXXXXDXXX [3064.0103]: 0.36
XXXXFXXXX [3064.0085]: 0.43
XXXXIXXXX [3064.0088]: 0.34

Data request: Could you share which Normalized average relative binding affinity(ARB) value was measured for XXXXXXMXX [3064.0131] ?
Data returned: 0.30

Data request: And what about the sequence XXXXXXXPX [3064.0153] ?
Data returned: 0.18

Data request: And what about the sequence XXXNXXXXX [3064.0072] ?
Data returned: 0.46

Data request: And what about the sequence XXXWXXXXX [3064.0079] ?
Data returned: 0.33

====

Normalized average relative binding affinity(ARB) by entry:
Experimental system: H-2 K^d (Mus musculus)
Format: binding
Please give the numeric answer without any surrounding text.

Some solved cases for reference:
XXXXXDXXX [3064.0103]: 0.066
XXXWXXXXX [3064.0079]: 0.040
XXXXXXWXX [3064.0139]: 0.056
XXXXXXGXX [3064.0126]: 0.28
XXXXHXXXX [3064.0087]: 0.064

Data request: API: value(readout= Normalized average relative binding affinity(ARB), system= H-2 K^d (Mus musculus), query= XXXXVXXXX [3064.0098] )
Data returned: 0.24

====

Experimental system: HLA B*5301 (Homo sapiens, UniProt P01889, A329T/A93T/A95T/C349S/D201E/D98Y/E176V/E187L/E204Q/E69T/G107R/I218V/K202T/L105A/L119I/N104I/Q94N/R106L/R155S/R180L/S101N/S121R/S35A/S48A/T118I/V127L/V306I/V36M/Y140S/Y91F)
Format: binding
Measured metric: Normalized average relative binding affinity (ARB), HLA B*5301
Please give the numeric answer without any surrounding text.

Some solved cases for reference:
XXRXXXXXX [3064.0055]: 0.029
XXGXXXXXX [3064.0046]: 0.046
XIXXXXXXX [3064.0028]: 0.11
XTXXXXXXX [3064.0037]: 0.022
XVXXXXXXX [3064.0038]: 0.10

Data request: Could you share which Normalized average relative binding affinity (ARB), HLA B*5301 value was measured for XXQXXXXXX [3064.0054] ?
Data returned: 0.13

Data request: And what about the sequence XXPXXXXXX [3064.0053] ?
Data returned: 0.010

Data request: And what about the sequence XGXXXXXXX [3064.0026] ?
Data returned: 0.022

====

Experimental system: HLA A*3001 (Homo sapiens, UniProt P04439, D140H/D185E/E176W/F33S/G80R/H175R/K168Q/R138E/R41S)
Protocol details: biochemical
Format: binding
Measured metric: Normalized average relative binding affinity (ARB), HLA A*3001
Please give the numeric answer without any surrounding text.

Some solved cases for reference:
XXWXXXXXX [3064.0059]: 0.0080
NXXXXXXXX [3064.0012]: 0.065
XPXXXXXXX [3064.0033]: 0.024
XXXAXXXXX [3064.0061]: 0.48
XFXXXXXXX [3064.0025]: 0.30

Data request: Could you share which Normalized average relative binding affinity (ARB), HLA A*3001 value was measured for XXMXXXXXX [3064.0051] ?
Data returned: 0.028

Data request: And what about the sequence XLXXXXXXX [3064.0030] ?
Data returned: 0.16

Data request: And what about the sequence XXQXXXXXX [3064.0054] ?
Data returned: 0.014

Data request: And what about the sequence XQXXXXXXX [3064.0034] ?
Data returned: 0.33

Data request: And what about the sequence XRXXXXXXX [3064.0035] ?
Data returned: 0.048
